# target desc: T1, human TREM2 (triggering receptor expressed on myeloid cells 2) (human) (UniProt Q9NZC2)
# T1 sequence (looked up): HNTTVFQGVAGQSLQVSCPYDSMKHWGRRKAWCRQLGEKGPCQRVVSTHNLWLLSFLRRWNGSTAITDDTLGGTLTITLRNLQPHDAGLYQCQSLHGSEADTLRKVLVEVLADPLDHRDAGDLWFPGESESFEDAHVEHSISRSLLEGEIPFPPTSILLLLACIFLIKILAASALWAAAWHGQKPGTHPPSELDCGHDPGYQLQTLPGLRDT
# assay details: 2nd screen, 10 nM Ab
readout type: Binding Signal (fold over 6E7 parental antibody) (fold)
# output: bare number, implied unit fold

[
  {
    "binder": "6E7 antibody affinity modulation variant V63 (antibody, V domains shown) VH: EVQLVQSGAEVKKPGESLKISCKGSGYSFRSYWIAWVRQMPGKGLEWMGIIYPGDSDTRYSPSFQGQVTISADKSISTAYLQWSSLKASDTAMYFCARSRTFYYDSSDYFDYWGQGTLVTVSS VL: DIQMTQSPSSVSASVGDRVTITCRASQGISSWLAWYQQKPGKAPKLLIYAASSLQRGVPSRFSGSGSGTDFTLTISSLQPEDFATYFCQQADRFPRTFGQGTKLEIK",
    "unit tag": "fold",
    "recorded number": 3.71
  }
]

GET /value?item= 6E7 antibody affinity modulation variant V2 (antibody, V domains shown) VH: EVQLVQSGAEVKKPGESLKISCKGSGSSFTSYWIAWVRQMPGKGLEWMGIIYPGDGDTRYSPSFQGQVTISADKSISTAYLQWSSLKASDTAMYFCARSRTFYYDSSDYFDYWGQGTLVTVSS VL: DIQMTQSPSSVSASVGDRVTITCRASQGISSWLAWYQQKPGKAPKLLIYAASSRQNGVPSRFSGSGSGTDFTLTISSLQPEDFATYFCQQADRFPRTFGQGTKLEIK &field=Binding Signal (fold over 6E7 parental antibody) returns 2.9

Consider 6E7 antibody affinity modulation variant V17 (antibody, V domains shown) VH: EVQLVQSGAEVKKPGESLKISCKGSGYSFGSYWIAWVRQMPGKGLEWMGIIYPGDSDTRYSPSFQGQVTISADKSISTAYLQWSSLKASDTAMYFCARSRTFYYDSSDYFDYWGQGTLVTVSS VL: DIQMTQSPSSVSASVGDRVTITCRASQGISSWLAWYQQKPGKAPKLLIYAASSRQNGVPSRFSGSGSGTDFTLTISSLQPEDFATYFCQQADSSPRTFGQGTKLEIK . Its measured Binding Signal (fold over 6E7 parental antibody) is 5.51
